Sourced from patent US10787450B2

pIC50: −log10 of the molar value.
Here we list compounds with their recorded pIC50 when tested on UniProt:O75116.

# Compound, Property Measured, Result
data = [
    ("COc1cccc(CN2C(=O)N(c3ccc(-c4cn[nH]c4)cc3)CC23CCN(C(=O)CO)CC3)c1 [Example 176]", "pIC50", "> 8.52"),
]

input: Need pIC50 of COc1cccc(CN2C(=O)N(c3ccc(-c4cn[nH]c4)cn3)CC23CCN(C(=O)C(C)(C)O)CC3)c1 [Example 199] , thanks.
output: 7.52 to 8.52

input: Need pIC50 of COc1cccc(CN2C(=O)N(c3ccc(-c4cn[nH]c4)cc3)CC23CCN(C(C)=O)CC3)c1 [Example 76] , thanks.
output: > 8.52

input: Need pIC50 of COc1cccc(CN2C(=O)N(c3ccc(-c4cn[nH]c4)cc3)CC23CCOCC3)c1F [Example 29] , thanks.
output: 6.60 to 7.52

input: Need pIC50 of CCc1nc(N2CC3(CCN(C(=O)C4CC(F)C4)CC3)N(Cc3cccc(OC)c3)C2=O)ccc1-c1cn[nH]c1 (stereo not drawn) [Example 208] , thanks.
output: 7.52 to 8.52

input: Need pIC50 of COc1cccc(CN2C(=O)N(c3ccc(-c4cn[nH]c4)cc3)CC23CCN(CC2CCC2)CC3)c1 [Example 232] , thanks.
output: > 8.52

input: Need pIC50 of COc1cccc(NC2C(=O)N(c3ccc(-c4cn[nH]c4)cc3)CC23CCN(C(C)=O)CC3)c1 (stereo not drawn) [Example 249] , thanks.
output: 5.52 to 6.60

----------
Here we list compounds with their recorded pIC50 when tested on ROCK2 (Homo sapiens (Human), UniProt O75116).
Sequence (O75116 whole entry, species assumed): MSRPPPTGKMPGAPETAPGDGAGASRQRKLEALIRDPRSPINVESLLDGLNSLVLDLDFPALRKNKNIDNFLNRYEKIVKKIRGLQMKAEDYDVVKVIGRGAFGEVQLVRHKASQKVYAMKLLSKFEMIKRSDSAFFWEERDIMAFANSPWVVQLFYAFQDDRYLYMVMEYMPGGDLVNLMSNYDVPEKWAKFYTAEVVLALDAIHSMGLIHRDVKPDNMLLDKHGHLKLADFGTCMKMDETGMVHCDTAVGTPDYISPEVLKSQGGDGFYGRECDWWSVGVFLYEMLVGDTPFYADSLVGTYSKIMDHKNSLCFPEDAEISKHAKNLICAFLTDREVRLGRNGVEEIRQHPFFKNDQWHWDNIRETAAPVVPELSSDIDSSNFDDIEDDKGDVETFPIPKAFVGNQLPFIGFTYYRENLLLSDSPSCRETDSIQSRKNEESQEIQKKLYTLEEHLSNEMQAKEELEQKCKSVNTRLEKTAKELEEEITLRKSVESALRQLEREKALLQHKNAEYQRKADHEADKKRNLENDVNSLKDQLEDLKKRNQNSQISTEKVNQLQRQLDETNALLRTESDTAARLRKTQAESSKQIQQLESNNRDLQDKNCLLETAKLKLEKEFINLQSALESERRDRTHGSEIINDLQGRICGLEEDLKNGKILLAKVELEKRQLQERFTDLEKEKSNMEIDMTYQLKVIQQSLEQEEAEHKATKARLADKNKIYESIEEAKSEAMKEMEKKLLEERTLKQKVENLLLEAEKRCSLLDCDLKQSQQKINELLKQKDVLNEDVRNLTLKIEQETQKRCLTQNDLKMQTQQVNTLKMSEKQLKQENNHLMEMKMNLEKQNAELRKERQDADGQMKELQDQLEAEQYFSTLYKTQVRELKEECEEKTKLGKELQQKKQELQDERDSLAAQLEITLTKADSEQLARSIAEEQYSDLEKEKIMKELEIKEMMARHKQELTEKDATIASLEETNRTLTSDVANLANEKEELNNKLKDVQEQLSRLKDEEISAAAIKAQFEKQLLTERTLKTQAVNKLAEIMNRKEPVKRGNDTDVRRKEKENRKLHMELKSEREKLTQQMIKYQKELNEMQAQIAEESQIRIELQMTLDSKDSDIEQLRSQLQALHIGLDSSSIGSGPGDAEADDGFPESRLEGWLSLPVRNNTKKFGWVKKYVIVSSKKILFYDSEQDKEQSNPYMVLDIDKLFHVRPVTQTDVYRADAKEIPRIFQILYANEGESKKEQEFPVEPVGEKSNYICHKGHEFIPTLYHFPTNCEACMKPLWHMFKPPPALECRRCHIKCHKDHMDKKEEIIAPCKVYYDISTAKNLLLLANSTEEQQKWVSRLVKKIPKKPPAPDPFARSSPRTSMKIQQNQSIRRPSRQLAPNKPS
pIC50: −log10 of the molar value. Structures can show the parent of a compound that is named as a salt.

Reference set, count: 3
# Compound, pIC50
measured = [
    ("CCN(C)C(=O)c1cccc(CN2C(=O)N(c3ccc(-c4cn[nH]c4)cc3)CC23CCOCC3)c1", "6.60 to 7.52"),
    ("O=C(NC1CCOC1)c1cccc(CN2C(=O)N(c3ccc(-c4cn[nH]c4)cc3)CC23CCOCC3)c1 (centres unmarked)", "> 8.52"),
    ("CC(=O)N1CCC2(CC1)CN(c1ccc(-c3cn[nH]c3)cc1)C(=O)N2Cc1cc(F)ccc1C", "7.52 to 8.52"),
]

input: Tell me reported pIC50 for COc1cccc(CN2C(=O)N(c3ccc(-c4cn[nH]c4)cc3)CC23CCN(C(=O)C2CCOCC2)CC3)c1 [Example 173, TFA] , tested with ROCK2 (Homo sapiens (Human), UniProt O75116).
output: > 8.52

input: Tell me reported pIC50 for CCc1nc(N2CC3(CCNCC3)N(Cc3cccc(OC)c3)C2=O)ccc1-c1cn[nH]c1 [Example 75, TFA] , tested with ROCK2 (Homo sapiens (Human), UniProt O75116).
output: > 8.52

input: Tell me reported pIC50 for `CCc1nc(N2CC3(CCN(C(=O)CO)CC3)N(Cc3cc(F)cc(OC)c3)C2=O)ccc1-c1cn[nH]c1` , tested with ROCK2 (Homo sapiens (Human), UniProt O75116).
output: > 8.52

input: Tell me reported pIC50 for `O=C(c1cccc(CN2C(=O)N(c3ccc(-c4cn[nH]c4)cc3)CC23CCOCC3)c1)N1CC[C@H](O)C1` , tested with ROCK2 (Homo sapiens (Human), UniProt O75116).
output: 6.60 to 7.52

input: Tell me reported pIC50 for `CCc1nc(N2CC3(CCN(CCC(F)(F)F)CC3)N(Cc3cccc(F)c3C)C2=O)ccc1-c1cn[nH]c1` , tested with ROCK2 (Homo sapiens (Human), UniProt O75116).
output: 7.52 to 8.52

input: Tell me reported pIC50 for `O=C1N(c2ccc(-c3cn[nH]c3)cc2)CC2(CCOCC2)N1Cc1cccc(OC(F)(F)F)c1` , tested with ROCK2 (Homo sapiens (Human), UniProt O75116).
output: 6.60 to 7.52

input: Tell me reported pIC50 for `CCc1nc(N2CC3(CCN(CC(F)F)CC3)N(Cc3cccc(F)c3C)C2=O)ccc1-c1cn[nH]c1` , tested with ROCK2 (Homo sapiens (Human), UniProt O75116).
output: 7.52 to 8.52

input: Tell me reported pIC50 for `CCc1nc(N2CC3(CCN(C(=O)OC(C)(C)C)CC3)N(Cc3cccc(OC)c3)C2=O)ccc1-c1cn[nH]c1` , tested with ROCK2 (Homo sapiens (Human), UniProt O75116).
output: 6.60 to 7.52

input: Tell me reported pIC50 for `CC(=O)N1CCC2(CC1)CN(c1ccc(-c3cn[nH]c3)cc1)C(=O)N2Cc1cccc(F)c1F` , tested with ROCK2 (Homo sapiens (Human), UniProt O75116).
output: 6.60 to 7.52

input: Tell me reported pIC50 for `COc1cccc(CN2C(=O)N(c3ccc(-c4cn[nH]c4)cc3)CC23CCN(CCC(C)C)CC3)c1` , tested with ROCK2 (Homo sapiens (Human), UniProt O75116).
output: > 8.52

----------
Here we list compounds with their recorded IC50 when tested on ROCK2 (Homo sapiens (Human)).

Reference set, count: 3
# Compound, IC50
measured = [
    ("COc1nc(N2CC3(CCN(C(=O)C(C)(C)O)CC3)N(Cc3cccc(F)c3C)C2=O)ccc1-c1cn[nH]c1", "< 3 nM"),
    ("COc1cccc(CN2C(=O)N(c3ccc(-c4cn[nH]c4)c(OC)n3)CC23CCN(C(=O)C(C)O)CC3)c1 (stereo not shown)", "< 3 nM"),
    ("NC(=O)c1cccc(CN2C(=O)N(c3ccc(-c4cn[nH]c4)cc3)CC23CCOCC3)c1", "30 to 250 nM"),
]

Continue with the compound presented below.
input: Tell me reported IC50 for COc1cccc(CN2C(=O)N(c3ccc(-c4cn[nH]c4)cc3)CC23CCN(CC2CCOC2)CC3)c1 (stereo not shown) , tested with ROCK2 (Homo sapiens (Human)).
output: < 3 nM

----------
Here we list molecules with their recorded IC50 when tested on ROCK2 (Homo sapiens (Human), UniProt O75116).

# Molecule, IC50
rows = [
    ("CCOC(=O)N1CCC2(CC1)CN(c1ccc(-c3cn[nH]c3)c(CC)n1)C(=O)N2Cc1cc(F)cc(OC)c1", "3 to 30 nM"),
    ("CC(=O)N1CCC2(CC1)CN(c1ccc(-c3cn[nH]c3)cc1)C(=O)N2Cc1ccc(F)cc1C", "3 to 30 nM"),
    ("CCc1nc(N2CC3(CCN(C(=O)C(C)C)CC3)N(Cc3cccc(OC)c3)C2=O)ccc1-c1cn[nH]c1", "< 3 nM"),
]

input: Tell me reported IC50 for `COc1cccc(CN2C(=O)N(c3ccc(-c4cn[nH]c4)cc3)CC23CCN(C(=O)C2CCC(F)(F)CC2)CC3)c1` , tested with ROCK2 (Homo sapiens (Human), UniProt O75116).
output: < 3 nM

input: Tell me reported IC50 for `CC(=O)N1CCC2(CC1)CN(c1ccc(-c3cn[nH]c3)cc1)C(=O)N2Cc1cc(F)ccc1F` , tested with ROCK2 (Homo sapiens (Human), UniProt O75116).
output: 30 to 250 nM

input: Tell me reported IC50 for COc1cccc(NC2C(=O)N(c3ccc(-c4cn[nH]c4)cn3)CC23CCN(C(=O)CC(C)c2ccccc2)CC3)c1 (stereo not shown) , tested with ROCK2 (Homo sapiens (Human), UniProt O75116).
output: 250 to 3000 nM

input: Tell me reported IC50 for `CCc1nc(N2CC3(CCN(C(=O)C4(O)CC4)CC3)N(Cc3cccc(OC)c3)C2=O)ccc1-c1cn[nH]c1` , tested with ROCK2 (Homo sapiens (Human), UniProt O75116).
output: 3 to 30 nM

----------
Here we list compounds with their recorded IC50 when tested on UniProt:O75116.

input: Tell me reported IC50 for `COc1cccc(CN2C(=O)N(c3ncc(-c4cn[nH]c4)c(OC)n3)CC23CCN(C(=O)C(C)(C)CO)CC3)c1` , tested with UniProt:O75116.
output: 30 to 250 nM

----------
Here we list compounds with their recorded IC50 when tested on UniProt O75116.

# Compound, IC50
rows = [
    ("COc1cccc(NC2C(=O)N(c3ccc(-c4cn[nH]c4)cn3)CC23CCN(C(=O)CCc2nnc(-c4ccccc4)o2)CC3)c1 (stereo not shown)", "30 to 250 nM"),
]

input: Tell me reported IC50 for `COc1cccc(CN2C(=O)N(c3ccc(-c4cn[nH]c4)cc3)CC23CCN(CCO)CC3)c1` , tested with UniProt O75116.
output: < 3 nM

input: Tell me reported IC50 for `COCCOC(=O)N1CCC2(CC1)CN(c1ccc(-c3cn[nH]c3)cc1)C(=O)N2Cc1cccc(OC)c1` , tested with UniProt O75116.
output: < 3 nM

input: Tell me reported IC50 for `COc1cccc(CN2C(=O)N(c3ccc(-c4cn[nH]c4)cn3)CC23CCN(C(C)=O)CC3)c1` , tested with UniProt O75116.
output: < 3 nM
